test.system: HER2 wildtype (WT) protein (Homo sapiens, UniProt P04626)
Construct: BT474 and N87 cell lines which endogenously overexpress the HER2 wildtype (WT) protein; endogenous in cells; host or cells: BT474, N87
Sequence (P04626 23-1255): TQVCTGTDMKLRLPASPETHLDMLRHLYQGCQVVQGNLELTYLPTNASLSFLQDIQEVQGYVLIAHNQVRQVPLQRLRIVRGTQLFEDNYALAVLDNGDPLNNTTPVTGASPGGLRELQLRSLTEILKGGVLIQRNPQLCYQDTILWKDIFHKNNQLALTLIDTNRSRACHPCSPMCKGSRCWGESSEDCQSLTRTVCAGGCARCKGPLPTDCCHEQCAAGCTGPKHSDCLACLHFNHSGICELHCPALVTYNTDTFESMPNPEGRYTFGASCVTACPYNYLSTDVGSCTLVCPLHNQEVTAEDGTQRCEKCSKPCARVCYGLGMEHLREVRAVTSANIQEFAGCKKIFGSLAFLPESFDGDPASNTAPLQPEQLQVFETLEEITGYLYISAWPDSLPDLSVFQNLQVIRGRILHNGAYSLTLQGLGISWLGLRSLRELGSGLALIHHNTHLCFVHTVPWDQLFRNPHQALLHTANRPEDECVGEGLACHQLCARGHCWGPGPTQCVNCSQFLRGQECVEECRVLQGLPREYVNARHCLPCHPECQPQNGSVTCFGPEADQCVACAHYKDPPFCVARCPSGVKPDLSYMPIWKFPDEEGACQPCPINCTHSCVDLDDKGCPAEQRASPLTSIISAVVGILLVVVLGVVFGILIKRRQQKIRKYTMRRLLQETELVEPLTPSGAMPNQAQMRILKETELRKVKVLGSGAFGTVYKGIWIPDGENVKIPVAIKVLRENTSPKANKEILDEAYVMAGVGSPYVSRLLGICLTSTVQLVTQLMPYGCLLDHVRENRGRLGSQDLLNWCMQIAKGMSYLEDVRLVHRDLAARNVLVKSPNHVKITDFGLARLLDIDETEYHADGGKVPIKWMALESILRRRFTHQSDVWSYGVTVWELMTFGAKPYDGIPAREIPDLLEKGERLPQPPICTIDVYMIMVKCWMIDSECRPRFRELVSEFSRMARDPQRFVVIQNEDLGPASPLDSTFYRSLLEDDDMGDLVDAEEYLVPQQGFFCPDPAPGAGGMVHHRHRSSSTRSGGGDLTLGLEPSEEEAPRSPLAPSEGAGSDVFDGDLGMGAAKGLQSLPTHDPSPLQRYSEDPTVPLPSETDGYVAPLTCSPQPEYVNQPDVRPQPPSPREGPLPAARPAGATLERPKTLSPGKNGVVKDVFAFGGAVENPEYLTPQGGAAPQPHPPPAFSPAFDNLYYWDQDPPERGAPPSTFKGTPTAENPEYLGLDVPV
test.details: HER2 signaling (pHER2 Tyr1248/total HER2 MSD) in N87 cells
Assay type: cell-based
cond: 1.5 hr compound, 1% FBS
Examples of compounds with documented EC50 follow.

compound | EC50
Cc1ccc(Oc2ccc(Nc3ncnc4sc5c(c34)CCN(C(=O)/C=C/CN(C)C)C5)cc2C)cn1 [Compound 8] | < 100 nM
COc1ccc(Oc2ccc(Nc3ncnc4sc5c(c34)CCN(C(=O)/C=C/CN(C)C)C5)cc2C)cn1 [Compound 95] | < 100 nM
Cc1ccc(Oc2ccc(Nc3ncnc4sc5c(c34)CC(C)N(C(=O)C=CCN(C)C)C5C)cc2C)cn1 (single isomer, unassigned) [Compound 162] | 350 to 1000 nM
